Target: UniProt P29275
Sequence (P29275 whole entry): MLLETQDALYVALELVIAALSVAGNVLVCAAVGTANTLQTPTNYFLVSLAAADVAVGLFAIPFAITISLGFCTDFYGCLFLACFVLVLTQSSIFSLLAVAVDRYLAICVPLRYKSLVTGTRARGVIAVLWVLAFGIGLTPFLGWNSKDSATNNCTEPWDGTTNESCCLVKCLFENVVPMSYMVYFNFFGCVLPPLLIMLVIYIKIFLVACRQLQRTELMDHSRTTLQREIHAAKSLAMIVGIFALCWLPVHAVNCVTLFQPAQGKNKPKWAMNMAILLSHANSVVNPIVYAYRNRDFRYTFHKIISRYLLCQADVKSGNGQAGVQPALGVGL
Assay: Binding affinity to human recombinant adenosine A2B receptor expressed in CHO cell membranes assessed as inhibition of NECA-stimulated adenylyl cyclase activity after 20 mins
I'd be grateful if you could share measured pKi for these entries.
Expect pKi as a plain number equal to -log10 of the molar concentration.

Q. Give a short answer stating reported pKi for Cn1c(=O)c2[nH]c(-c3ccc(OCCN4CCCC4)cc3)nc2n(C)c1=O .
A. 5.71

Q. Return the recorded pKi value; entry: Cn1c(=O)c2[nH]c(-c3ccc(OCCN4CCOCC4)cc3)nc2n(C)c1=O
A. 5.87

Q. Assign pKi to the following record: CCN(CC)CCOc1ccc(-c2nc3c([nH]2)c(=O)n(C)c(=O)n3C)cc1
A. 5.59

Q. Read the entry Cn1c(=O)c2[nH]c(-c3ccc(OC4CCCC4)cc3)nc2n(C)c1=O and write its reported pKi.
A. 6.00

Q. Output pKi of Cn1c(=O)c2[nH]c(-c3ccc(OCCCn4ccnc4)cc3)nc2n(C)c1=O
A. 5.98

Q. Read off the recorded pKi for CN(C)CCOc1ccc(-c2nc3c([nH]2)c(=O)n(C)c(=O)n3C)cc1
A. 5.31

Q. Please report the measured pKi for Cn1c(=O)c2[nH]c(-c3ccc(OCCCN4CCN(Cc5ccccc5Cl)CC4)cc3)nc2n(C)c1=O
A. 6.77

====

Organism: Homo sapiens
Experiment: Selectivity ratio of Ki for human recombinant adenosine A1 receptor to Ki for human recombinant adenosine A2A receptor
Can you tell me Ratio Ki for the items I'm about to list?

Q. Give Ratio Ki for Cn1c(=O)c2[nH]c(Cc3ccc(OCCCN4CCC5(CC4)OCCO5)cc3)nc2n(C)c1=O
A. > 3.7

Q. Query Ratio Ki for Cn1c(=O)c2[nH]c(Cc3ccc(OCCCn4ccnc4)cc3)nc2n(C)c1=O
A. > 9.5

Q. Name the recorded Ratio Ki of the item Cn1c(=O)c2[nH]c(-c3ccc(OCCCCl)cc3)nc2n(C)c1=O in your answer.
A. > 220

Q. Identify Ratio Ki associated with the molecule Cn1c(=O)c2[nH]c(-c3ccc(OC4CCCC4)cc3)nc2n(C)c1=O
A. > 420

====

Species on record: Homo sapiens
Assay: Selectivity ratio of Ki for human recombinant adenosine A3 receptor to Ki for human recombinant adenosine A2A receptor
Flag rule - Ratio Ki less than 30 flags Satisfied; the remaining entries get Not satisfied.

Q. # check: Ratio Ki < 30 for Cn1c(=O)c2[nH]c(-c3ccc(OCCC4CCNCC4)cc3)nc2n(C)c1=O
A. Satisfied

Q. Below 30 on Ratio Ki? Entry CN(C)CCOc1ccc(-c2nc3c([nH]2)c(=O)n(C)c(=O)n3C)cc1
A. Satisfied

Q. Here's an entry: Cn1c(=O)c2[nH]c(-c3ccc(OCCCCl)cc3)nc2n(C)c1=O . Is its Ratio Ki below 30?
A. Not satisfied

Q. Ratio Ki under 30? Item: Cn1c(=O)c2[nH]c(-c3ccc(OCCN4CCCC4)cc3)nc2n(C)c1=O
A. Satisfied

Q. Please indicate whether the reported Ratio Ki of Cn1c(=O)c2[nH]c(-c3ccc(OC4CCCC4)cc3)nc2n(C)c1=O is strictly below 30.
A. Not satisfied

Q. Determine if CCN(CC)CCOc1ccc(-c2nc3c([nH]2)c(=O)n(C)c(=O)n3C)cc1 shows Ratio Ki strictly lower than 30.
A. Satisfied

Q. Lab log: compare recorded Ratio Ki with 30; is it strictly lower for Cn1c(=O)c2[nH]c(-c3ccc(OCCCN4CCN(Cc5ccccc5Cl)CC4)cc3)nc2n(C)c1=O ?
A. Not satisfied
